Taken from patent US6340770B1.

Each entry below carries its reported BUN after the 1st time injection.
System: male ICR mice
Experiment: Nephrotoxicity test, serologic analysis (BUN, creatinine, uric acid) after i.p. injection
Assay type: in vivo
Design: unit not given here
Conditions: serum, 6 hour after single i.p. injection; dose 8x IC50 (cisplatin 7x IC50); average ± SD of 5-6 ICR mice
Give the figure only, with no unit attached.

Example entries begin here.
Compound String: O=C1CC(=O)[O][Pt]2([O]C(=O)C(F)(F)F)([O]C(=O)C(F)(F)F)([NH]CCCC[NH]2)[O]1
Tested System: male ICR mice
BUN after the 1st time injection: 22.1

Compound String: CC(=O)[O][Pt]12([O]C(C)=O)([NH]CCCC[NH]1)[O]C(=O)CC(=O)[O]2
Tested System: male ICR mice
BUN after the 1st time injection: 24.0

Compound String: O=C([O][Pt]1([Cl])([Cl])([O]C(=O)C(F)(F)F)[NH]CCCC[NH]1)C(F)(F)F
Tested System: male ICR mice
BUN after the 1st time injection: 28.8

Okay, now this molecule:
Qu. Notebook entry, male ICR mice assay: BUN after the 1st time injection of CC(=O)[O][Pt]1([Cl])([Cl])([O]C(C)=O)[NH]CCCC[NH]1 = ?
Ans. 29.2
